Reference for the values: patent US20250042994A1

System name: T1, human CD19 on CHO-K1-human CD19 cells (human, UniProt P15391 20-556)
T1 construct: whole, on cells; also called CHO-K1-human CD19-2C8
T1 sequence (looked up): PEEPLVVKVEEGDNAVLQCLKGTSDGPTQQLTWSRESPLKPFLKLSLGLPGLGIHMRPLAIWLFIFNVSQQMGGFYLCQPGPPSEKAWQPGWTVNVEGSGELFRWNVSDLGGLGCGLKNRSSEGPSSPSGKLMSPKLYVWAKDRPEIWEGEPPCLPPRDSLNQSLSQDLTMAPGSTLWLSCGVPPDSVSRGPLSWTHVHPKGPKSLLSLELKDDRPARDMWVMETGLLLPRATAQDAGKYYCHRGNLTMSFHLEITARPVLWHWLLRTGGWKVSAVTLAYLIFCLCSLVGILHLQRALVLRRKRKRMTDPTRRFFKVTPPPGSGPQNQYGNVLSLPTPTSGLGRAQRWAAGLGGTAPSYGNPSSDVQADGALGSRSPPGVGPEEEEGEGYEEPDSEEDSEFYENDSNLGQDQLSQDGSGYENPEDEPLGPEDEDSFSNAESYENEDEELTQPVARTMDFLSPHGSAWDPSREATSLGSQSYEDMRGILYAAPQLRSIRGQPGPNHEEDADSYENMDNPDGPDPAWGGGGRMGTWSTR
Assay name: FACS on CHO-K1-human CD19 cells
Please use yes for Maximum mean fluorescence intensity under 50000 and no for everything else, ties included.

[in] Is the reported Maximum mean fluorescence intensity for F4.21.2 (antibody, human IgG1, V domains shown, human-murine chimeric antibody, human IgG1) VH: QVQLKQSGPGLVQPSQSLSITCTVSGFSLSTYGVHWVRQSPGRGLEWLGVIWIGGTTDYNAAFISRLTISKDNSRGQVFFKMDSLQANDTAIYYCARKGYYKYDGGYYYAMDYWGQGTSVTVSS VL: DIQMTQSSSYLSVSLGGRVTITCKASDHINNWLAWYQQKPGNAPWLLISGATSLETGVPSRFSGSGSGKDYTLSISSLQTEDVATYYCQQYWSTPLTFGAGTKLELK strictly below 50000?
[out] no

[in] Is the reported Maximum mean fluorescence intensity for F1-mab003 (antibody, human IgG1, V domains shown, human-murine chimeric antibody, human IgG1) VH: EVQLQQSGPELVKPGASVKMSCKASGYTFTDYVMHWVRQTPGQGLEWIGYFNPYNDGTNYNEKFKVKATLTSDKSSTTAYMELSSLTSEDSAVYYCARGVYYYGRDFDYWGQGTTLTVSS VL: DVVLTQTPLSLPVSLGDQASISCRSSQSLENSNGNSYLNWYLQKPGQSPQLLIYRVSNRFSGVLDRFSGSGSGTDFTLKISRVEAEDLGVYFCLQITHVPWTFGGGTKLEIK strictly below 50000?
[out] no

[in] Is the reported Maximum mean fluorescence intensity for F5.3.6 (antibody, human IgG1, V domains shown, human-murine chimeric antibody, human IgG1) VH: DVQLQESGPGLVKPSQSQSLTCSVTGYSITSGYYWNWIRQFPGNKLEWMGYISYDGSNNYNPSLKNRISITRDTSKNQFFLKLNSVTTEDTVTYYCARAPLTGDRYWYFDVWGTGTTVTVSS VL: DIVLTQSPASLAVSLGQRATISCRASQSVSTSSYSYMHWYQQKPGQTPKLLIKYASNLKSGVPARFSGSGSGTDFTLNIHPVEEEDTATYYCQHSWEIPPTFGGGTKLEIK strictly below 50000?
[out] yes

[in] Is the reported Maximum mean fluorescence intensity for F4.4.6 (antibody, human IgG1, V domains shown, human-murine chimeric antibody, human IgG1) VH: QVQLQQSGAELARPGASVKLSCKASGYTFTSYWMQWVKQRPGQGLEWIGAIYPGDGDSRYTQKFKGKATLTADKSSSTAYMQLSSLASEDSAVYYCARSTTTVLGNNFEYWGQGTTLTVSS VL: QIVLTQSPAIMSALPGEKVTMTCSASSSVSSMHWYQQKSGTSPKRWIYDTSKLASGVPARFSGSGSGTSYSLTISSMEAEDAATYYCQQWSSNPWTFGGGTKLEIK strictly below 50000?
[out] yes

[in] Is the reported Maximum mean fluorescence intensity for F5.8.6 (antibody, human IgG1, V domains shown, human-murine chimeric antibody, human IgG1) VH: QVQLHQPGAELVMPGASVTLSCKASGYTFTSYWMHWVKQRPGQGLEWIGEIDPSDSYTTYDQKFKGKATLTVDKFSSTAYMQFSSLTSEDSAVYYCARLTGNHLDYWGQGTTLTVSS VL: DIVMTQSHKFMSSSVGDRVSITCKASQDVSPAVAWYQQKPGQSPKLLIYSTSYRNTGVPDRFTGSGSGTDFTFTISSVQAEDLAVYYCQQHYSIPLTFGAGTKLELK strictly below 50000?
[out] no
